Target: CYP2C9 (Homo sapiens (Human), UniProt P11712)
Sequence (P11712 whole entry): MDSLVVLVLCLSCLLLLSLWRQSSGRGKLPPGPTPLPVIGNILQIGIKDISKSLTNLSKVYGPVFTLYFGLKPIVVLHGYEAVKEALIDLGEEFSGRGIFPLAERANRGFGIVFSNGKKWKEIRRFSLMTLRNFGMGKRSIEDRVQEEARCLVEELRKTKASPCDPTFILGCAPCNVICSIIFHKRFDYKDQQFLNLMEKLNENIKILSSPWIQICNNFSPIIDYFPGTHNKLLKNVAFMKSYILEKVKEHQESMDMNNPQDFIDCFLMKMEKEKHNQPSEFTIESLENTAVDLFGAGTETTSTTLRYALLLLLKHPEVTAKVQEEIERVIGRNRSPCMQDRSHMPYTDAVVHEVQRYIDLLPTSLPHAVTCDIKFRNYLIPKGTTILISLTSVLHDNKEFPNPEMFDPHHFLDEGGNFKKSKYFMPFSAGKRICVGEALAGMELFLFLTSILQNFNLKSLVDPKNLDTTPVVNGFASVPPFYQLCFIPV
Experiment: Extracellular cytochrome P450 inhibition (microsomes)
Conditions: 2C9, diclofenac 4′-hydroxylation
Structures can show the parent of a compound that is named as a salt.
result-type: IC50

[[record]]
compound = "COc1ccc(CC(=O)O)cc1Oc1ccc(NC(=O)C(C)(C)C)cc1CSC(C)(C)C [Compound 2, sodium salt]"
result_type = "IC50"
experimental_value = "> 50 µM"


====

Experiment: Regional dosing study in rat (pharmacokinetics)
Assay type: in vivo
Settings: male, Sprague-Dawley, in vivo, po, 10 mg/kg
Text: Example 11: Regional Dosing Study Male Sprague-Dawley rats (weighing from about 200 to about 300 grams) in the fasted state received a single injection of a solution of Compound 2 (5% methocel) in the duodenum, jejunum or ileum. This was compared with PO administration of the same formulation of Compound 2. […]
Where a name gives a salt, the structure may show the parent alone.
result-type: half-life (min)

[[record]]
compound = "COc1ccc(CC(=O)O)cc1Oc1ccc(NC(=O)C(C)(C)C)cc1CSC(C)(C)C [Compound 2, sodium salt]"
result_type = "half-life"
experimental_value = 90


====

Target: mouse DP2 (Mus musculus (Mouse), UniProt Q9Z2J6)
Sequence (Q9Z2J6 whole entry): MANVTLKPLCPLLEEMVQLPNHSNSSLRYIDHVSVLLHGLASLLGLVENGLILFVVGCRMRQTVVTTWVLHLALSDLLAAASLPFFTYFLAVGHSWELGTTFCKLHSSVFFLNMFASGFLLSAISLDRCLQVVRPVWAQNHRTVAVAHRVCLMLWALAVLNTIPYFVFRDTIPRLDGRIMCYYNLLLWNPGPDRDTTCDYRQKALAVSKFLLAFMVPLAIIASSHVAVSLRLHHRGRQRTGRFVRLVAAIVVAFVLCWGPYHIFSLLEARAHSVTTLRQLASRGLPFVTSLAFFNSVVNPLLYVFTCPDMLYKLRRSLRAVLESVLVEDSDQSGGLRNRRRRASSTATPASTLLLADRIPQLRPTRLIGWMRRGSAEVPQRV
Test: In vitro DP2/CRTH2 radioligand ([3H]PGD2) membrane binding assay
Conditions: average; without serum albumin; read-out: IC50, inhibition of radiolabeled PGD2 binding to mouse DP2
result-type: IC50 (nM)

[[record]]
molecule = "COc1ccc(CC(=O)O)cc1Oc1ccc(NC(=O)C(C)(C)C)cc1CSC(C)(C)C [Compound 1]"
tested_system = "mouse DP2 (Mus musculus (Mouse), UniProt Q9Z2J6)"
result_type = "IC50"
experimental_value = 9.7


====

Experiment: Phase I single ascending dose study in humans, pharmacokinetics
Assay type: in vivo, human
Conditions: human, plasma; single oral 500 mg capsule, healthy humans, mean
From the text: Example 22: Phase I Study in Humans This is a phase 1, Single-Center, Double-Blind Study of Compound 2 in healthy volunteers. To assess: (1) the safety and tolerability of single and multiple doses of Compound 2 following oral administration; and (2) the pharmacokinetics (PK) of Compound 2 after single and multiple doses; and (3) the effects of the pharmacodynamic (PD) responses in healthy subjects to Compound 2 as measured by a PGD2-induced eosinophil shape change assay (ESC). […]
Counter-ions that a name gives are not always drawn.
result-type: Cmax (ng/mL)

[[record]]
molecule = "COc1ccc(CC(=O)O)cc1Oc1ccc(NC(=O)C(C)(C)C)cc1CSC(C)(C)C [Compound 2, sodium salt]"
experimental_value = 25700

